Please respond with reported ELISA absorbance at 492 nm for every item in the list.
# Tested on: biomarker (antibody) in serum samples from patients with symptoms of tuberculosis
# Format: binding, human
# RUN_PARAMETERS: serum sample 55 TB−
Answers are plain numbers.

[[record]]
molecule = "CCCCCCCCCCCCCCCCCCCCCCCC[C@@H](C(=O)OC[C@H]1O[C@H](OC)[C@@H](O)[C@@H]1O)[C@H](O)CCCCCCCCCCCCCCCCC[C@@H]1C[C@@H]1CCCCCCCCCCCCCCCC[C@@H](OC)[C@@H](C)CCCCCCCCCCCCCCCCCC [Antigen B]"
result_value = 0.27


Switching to the query record.
Query :: Field request: ELISA absorbance at 492 nm | item: CCCCCCCCCCCCCCCCCCCCCC[C@@H](C(=O)OC[C@H]1O[C@H](OC)[C@@H](O)[C@@H]1O)[C@H](O)CCCCCCCCCCCCCCCCC[C@@H]1C[C@@H]1CCCCCCCCCCCCCCCC[C@@H](OC)[C@@H](C)CCCCCCCCCCCCCCCCCC [Antigen A]
Result :: 0.24

---

# Test system: biomarker (antibody) in serum samples from patients with symptoms of tuberculosis
# Format: binding, human
# RUN_PARAMETERS: serum sample 33 TB−
MEASUREMENT_KIND: ELISA absorbance at 492 nm
Give bare numbers.

Parameters: items (list). Returns: ELISA absorbance at 492 nm for each item.
1. CCCCCCCCCCCCCCCCCCCCCCCC[C@@H](C(=O)OC[C@H]1O[C@H](OC)[C@@H](O)[C@@H]1O)[C@H](O)CCCCCCCCCCCCCCCCC[C@@H]1C[C@@H]1CCCCCCCCCCCCCCCC[C@@H](OC)[C@@H](C)CCCCCCCCCCCCCCCCCC [Antigen B]
2. CCCCCCCCCCCCCCCCCCCCCCCC[C@@H](C(=O)OC[C@H]1O[C@H](OC)[C@@H](O)[C@@H]1O)[C@H](O)CCCCCCCCCCC[C@H]1CC1CCCCCCCCCCCCCC[C@H]1C[C@H]1CCCCCCCCCCCCCCCCCCCC (some centres unmarked) [Antigen F]
3. CCCCCCCCCCCCCCCCCCCCCC[C@@H](C(=O)OC[C@H]1O[C@H](OC)[C@@H](O)[C@@H]1O)[C@H](O)CCCCCCCCCCCCCCCCC[C@@H]1C[C@@H]1CCCCCCCCCCCCCCCC[C@@H](OC)[C@@H](C)CCCCCCCCCCCCCCCCCC [Antigen A]

Result ::
1. 0.36
2. 0.42
3. 0.18

---

# Tested on: biomarker (antibody) in serum samples from patients with symptoms of tuberculosis
# Format: binding, human
# RUN_PARAMETERS: serum sample 24 TB−
MEASUREMENT_KIND: ELISA absorbance at 492 nm
Give bare numbers.

[[record]]
compound = "CCCCCCCCCCCCCCCCCCCCCCCC[C@@H](C(=O)OC[C@H]1O[C@H](OC)[C@@H](O)[C@@H]1O)[C@H](O)CCCCCCCCCCC[C@H]1CC1CCCCCCCCCCCCCC[C@H]1C[C@H]1CCCCCCCCCCCCCCCCCCCC (some centres unmarked) [Antigen F]"
result_value = 0.62


Switching to the query record.
Query :: Field request: ELISA absorbance at 492 nm | item: CCCCCCCCCCCCCCCCCCCCCC[C@@H](C(=O)OC[C@H]1O[C@H](OC)[C@@H](O)[C@@H]1O)[C@H](O)CCCCCCCCCCCCCCCCC[C@H]1C[C@H]1CCCCCCCCCCCCCCCC[C@@H](OC)[C@@H](C)CCCCCCCCCCCCCCCCCC [Antigen E]
Result :: 0.26
